Cited source: ChEMBL document CHEMBL2331115

# System: Androgen receptor (Homo sapiens, UniProt P10275)
# Sequence (P10275 whole entry): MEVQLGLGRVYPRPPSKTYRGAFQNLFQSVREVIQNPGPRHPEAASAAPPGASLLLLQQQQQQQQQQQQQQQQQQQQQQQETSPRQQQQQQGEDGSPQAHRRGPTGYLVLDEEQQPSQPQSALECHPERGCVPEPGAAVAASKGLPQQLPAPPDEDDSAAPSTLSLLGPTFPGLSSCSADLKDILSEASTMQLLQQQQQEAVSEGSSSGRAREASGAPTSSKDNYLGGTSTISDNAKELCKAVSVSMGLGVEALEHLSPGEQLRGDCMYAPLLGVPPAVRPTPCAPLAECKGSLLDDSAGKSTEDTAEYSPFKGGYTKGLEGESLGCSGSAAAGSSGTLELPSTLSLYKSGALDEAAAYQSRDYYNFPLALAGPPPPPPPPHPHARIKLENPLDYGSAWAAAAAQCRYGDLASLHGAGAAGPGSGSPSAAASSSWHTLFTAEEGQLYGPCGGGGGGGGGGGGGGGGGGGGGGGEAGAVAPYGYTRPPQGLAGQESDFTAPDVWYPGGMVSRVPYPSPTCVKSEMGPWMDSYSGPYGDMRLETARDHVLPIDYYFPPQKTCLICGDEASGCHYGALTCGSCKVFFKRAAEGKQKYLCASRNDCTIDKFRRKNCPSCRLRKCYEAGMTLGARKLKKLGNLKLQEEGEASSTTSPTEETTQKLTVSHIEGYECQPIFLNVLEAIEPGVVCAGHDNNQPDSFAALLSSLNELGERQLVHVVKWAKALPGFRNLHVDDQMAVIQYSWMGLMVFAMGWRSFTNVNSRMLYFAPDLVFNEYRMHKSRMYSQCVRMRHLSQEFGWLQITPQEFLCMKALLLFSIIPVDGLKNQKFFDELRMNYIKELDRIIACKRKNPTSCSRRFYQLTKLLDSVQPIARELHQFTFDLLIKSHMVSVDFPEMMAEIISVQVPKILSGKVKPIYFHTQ
# Assay: Antagonist activity at human androgen receptor expressed in HEK293 cells assessed as inhibition of transcriptional activity by luciferase and beta-galactosidase reporter gene assay
Just a reminder that ties go to Condition not met: only IC50 strictly below 7 µM counts as Condition met.

Asked: Quick check: does CCC(CC)(c1ccc(OCC(=O)C(C)(C)C)c(C)c1)c1ccc(OCC(=O)C(C)(C)C)c(C)c1 have IC50 under 7 µM?
Given back: Condition not met

---
Asked: Report whether reported IC50 is lower than 7 µM (strictly) for CC[Si](CC)(c1ccc(OC[C@H](O)CO)c(C)c1)c1ccc(OC[C@@H](O)C(C)(C)C)c(C)c1
Given back: Condition not met
